Each entry below carries its recorded MIC.
- Test system: Staphylococcus aureus
- test.summary: Antibacterial activity against methicillin-resistant Staphylococcus aureus ATCC 33591 after 16 to 20 hrs by two fold serial dilution method
- Assay type: functional
Answer with a number only, understood to be in µg/mL.

Below, 2 compounds whose answers are already recorded.
NCCCC[C@H](N)CN(CC(=O)NCc1cccc2ccccc12)C(=O)c1ccc2ccccc2c1 :: 25
CCCCCCCCCC(=O)N[C@@H](Cc1c[nH]c2ccccc12)C(=O)N[C@@H](CC(N)=O)C(=O)N[C@@H](CC(=O)O)C(=O)N[C@@H]1C(=O)NCC(=O)N[C@@H](CCCN)C(=O)N[C@@H](CC(=O)O)C(=O)N[C@H](C)C(=O)N[C@@H](CC(=O)O)C(=O)NCC(=O)N[C@H](CO)C(=O)N[C@@H]([C@H](C)CC(=O)O)C(=O)N[C@@H](CC(=O)c2ccccc2N)C(=O)O[C@@H]1C :: 0.5

Exam item: Item under review: CC(C)(C)c1ccc(CNC(=O)CN(C[C@H](Cc2ccccc2)NC(=O)[C@@H](N)CCCCN)C(=O)CC23CC4CC(CC(C4)C2)C3)cc1 . Reported MIC?
Marked response: 6.25

Exam item: Item under review: N=C(N)NCCC[C@H](N)C(=O)N[C@@H](CCCCN)C(=O)N[C@@H](Cc1ccccc1)CN(CC(=O)NCC12CC3CC(CC(C3)C1)C2)C(=O)CC12CC3CC(CC(C3)C1)C2 . Reported MIC?
Marked response: 3.12

Exam item: Item under review: NCCCC[C@H](N)C(=O)N[C@@H](Cc1ccccc1)CN(CC(=O)N(Cc1ccccc1)Cc1ccccc1)C(=O)CC12CC3CC(CC(C3)C1)C2 . Reported MIC?
Marked response: 6.25

----------
- Test system: Pseudomonas aeruginosa
- test.summary: Antibacterial activity against Pseudomonas aeruginosa ATCC 27853 after 16 to 20 hrs by two fold serial dilution method
- Assay type: functional
readout.kind: MIC (µg/mL)
Answer with a number only, understood to be in µg/mL.

NCCCC[C@H](N)CN(CC(=O)NCc1cccc2ccccc12)C(=O)c1ccc2ccccc2c1 :: 6
NCCCC[C@H](N)C(=O)N[C@@H](Cc1ccccc1)CN(CC(=O)NCc1ccc(C(F)(F)F)cc1)C(=O)CC12CC3CC(CC(C3)C1)C2 :: 12.5
CC(C)(C)c1ccc(CNC(=O)CN(C[C@H](Cc2ccccc2)NC(=O)[C@@H](N)CCCCN)C(=O)CC23CC4CC(CC(C4)C2)C3)cc1 :: 6.25
N=C(N)NCCC[C@H](N)C(=O)N[C@@H](CCCCN)C(=O)N[C@@H](Cc1ccccc1)CN(CC(=O)NCC12CC3CC(CC(C3)C1)C2)C(=O)CC12CC3CC(CC(C3)C1)C2 :: 6.25

Exam item: For the record NCCCC[C@H](N)C(=O)N[C@@H](Cc1ccccc1)CN(CC(=O)N(Cc1ccccc1)Cc1ccccc1)C(=O)CC12CC3CC(CC(C3)C1)C2 , what value of MIC is listed for Pseudomonas aeruginosa?
Marked response: 25

----------
- System: Pseudomonas aeruginosa
- test.summary: Antibacterial activity against Pseudomonas aeruginosa ATCC 27853 after 16 to 20 hrs by two fold serial dilution method
- Type: functional
Each entry below carries its recorded MIC.
Answer with a number only, understood to be in µg/mL.

NCCCC[C@H](N)C(=O)N[C@@H](Cc1ccccc1)CN(CC(=O)NCC12CC3CC(CC(C3)C1)C2)C(=O)CC12CC3CC(CC(C3)C1)C2 :: 6.25

Exam item: Item under review: NCCCC[C@H](N)C(=O)N[C@@H](Cc1ccccc1)CN(CC(=O)NCc1cc(C(F)(F)F)cc(C(F)(F)F)c1)C(=O)CC12CC3CC(CC(C3)C1)C2 . Reported MIC?
Marked response: 6.25

Exam item: Item under review: NCCCC[C@H](N)C(=O)N[C@@H](Cc1ccccc1)CN(CC(=O)NCc1ccc(-c2ccccc2)cc1)C(=O)CC12CC3CC(CC(C3)C1)C2 . Reported MIC?
Marked response: 12.5
